tested on: MALME-3M melanoma; assay: NCI-60 one-dose screen, 48 h (100 = growth as untreated, 0 = no growth, -100 = all killed); conditions: 10 µM unless noted
Compounds without any hit were thinned out: in the full panel of roughly 83,000, 20% have a hit.
Overview of recorded growth for various compounds
Dear colleague, please return just the value in %, with no unit written.

Would you please look over these solved cases?
# entry-smiles, study-target, growth (%)
data = [
    ("Cc1ccc(/C=C2/C(=O)Nc3cc(Cl)c(-c4csc(N)n4)cc32)cc1", "MALME-3M melanoma", 80.4),
    ("O=C1COc2ccccc2C(=O)N1CCCCNc1ccccc1", "MALME-3M melanoma", 102),
    ("CCNc1cc(S(=O)(=O)O)ccc1C", "MALME-3M melanoma", 106),
    ("N#Cc1c(N)nc(Cl)c(C#N)c1C(=O)c1ccccc1", "MALME-3M melanoma", 42.3),
    ("O=C1c2ccccc2C(=O)c2c(NCCN=Cc3c(O)ccc4ccccc34)cccc21", "MALME-3M melanoma", 113),
    ("COc1ccc(CCNC=O)cc1OC", "MALME-3M melanoma", 90),
    ("O=C(N/N=C/c1ccccc1O)c1ccccc1O", "MALME-3M melanoma", 47.9),
]

# ---- query compound ----
q: Sample O=C1C(Cl)=C(Nc2cccc3cc4ccccc4nc23)C(=O)c2ccccc21 — what was its growth?
a: 48.9
